- Assay info: Pharmacokinetics study of KPT-335 in cats (i.v. injection, p.o. capsules and tablets; UPLC-MS/MS, non-compartmental analysis)
- Type: in vivo
- Run parameters: both sexes, cat, plasma, po, 2 mg/kg, cats, tablet p.o. 2 mg/kg BW after feeding, 0.167 h, mean; read-out: Plasma concentration Mean
- Experimental: In this study, a parallel trial design was employed, 42 adult domestic cats (21 males and 21 females), aged 1 to 2 years and weighing 2.5 ± 0.25 kg. Cats were grouped by random number, with half male and female in each group, and all cats were determined to be systemically healthy during an initial screening visit 1 week prior to the experiment. They were acclimatized to the laboratory environment for 7 days before the study commenced. […]
Observation type: concentration at 0.167 h (µg/mL)
// return numeric value only (unit: µg/mL, not printed)

Req: Consider the compound shown here: O=C(/C=C\n1cnc(-c2cc(C(F)(F)F)cc(C(F)(F)F)c2)n1)NNc1ccccn1 What is its recorded concentration at 0.167 h?
Resp: 0.0169

###

- Assay info: Pharmacokinetics study of KPT-335 in cats (i.v. injection, p.o. capsules and tablets; UPLC-MS/MS, non-compartmental analysis)
- Format: in vivo
- Run parameters: both sexes, cat, plasma, po, 2 mg/kg, cats, capsule p.o. 2 mg/kg BW, 1 h, mean; read-out: Plasma concentration Mean
- Method: In this study, a parallel trial design was employed, 42 adult domestic cats (21 males and 21 females), aged 1 to 2 years and weighing 2.5 ± 0.25 kg. Cats were grouped by random number, with half male and female in each group, and all cats were determined to be systemically healthy during an initial screening visit 1 week prior to the experiment. They were acclimatized to the laboratory environment for 7 days before the study commenced. […]
Observation type: concentration at 1 h (ng/mL)
Dear colleague, please return just the value in ng/mL, with no unit written.

Req: What value of concentration at 1 h has been reported for the following molecule? O=C(/C=C\n1cnc(-c2cc(C(F)(F)F)cc(C(F)(F)F)c2)n1)NNc1ccccn1
Resp: 206

###

- Assay info: Pharmacokinetics study of KPT-335 in cats (i.v. injection, p.o. capsules and tablets; UPLC-MS/MS, non-compartmental analysis)
- Format: in vivo
- Run parameters: both sexes, cat, plasma, po, 2 mg/kg, cats, tablet p.o. 2 mg/kg BW after feeding, 12 h, mean
Observation type: concentration at 12 h (ng/mL)
Note: unit ng/mL is implicit; provide only the numeric part.

Req: // returns reported concentration at 12 h for input O=C(/C=C\n1cnc(-c2cc(C(F)(F)F)cc(C(F)(F)F)c2)n1)NNc1ccccn1 [KPT-335]
Resp: 45

###

- Assay info: Pharmacokinetics study of KPT-335 in cats (i.v. injection, p.o. capsules and tablets; UPLC-MS/MS, non-compartmental analysis)
- Assay type: in vivo
- Run parameters: both sexes, cat, plasma, po, cats, all p.o. groups; read-out: Tmax after oral (p.o.) administration
Observation type: Tmax

Req: Which Tmax value is on record for O=C(/C=C\n1cnc(-c2cc(C(F)(F)F)cc(C(F)(F)F)c2)n1)NNc1ccccn1 [KPT-335] ?
Resp: 1 to 2.5 h

###

- Assay info: Pharmacokinetics study of KPT-335 in cats (i.v. injection, p.o. capsules and tablets; UPLC-MS/MS, non-compartmental analysis)
- Assay type: in vivo
- Run parameters: both sexes, cat, plasma, po, 0.2 mg/kg, cats, capsule p.o. 0.2 mg/kg BW, 24 h, mean
Observation type: concentration at 24 h (ng/mL)
Hi! Could you send only the number? It should be in ng/mL, unit omitted.

Req: Entry O=C(/C=C\n1cnc(-c2cc(C(F)(F)F)cc(C(F)(F)F)c2)n1)NNc1ccccn1 [KPT-335] : reported concentration at 24 h = ?
Resp: 3.49

###

- Assay info: Pharmacokinetics study of KPT-335 in cats (i.v. injection, p.o. capsules and tablets; UPLC-MS/MS, non-compartmental analysis)
- Format: in vivo
- Run parameters: both sexes, plasma, po, 2 mg/kg, cats, p.o., Tablet, Feeding, 2 mg/kg BW; read-out: AUClast
Observation type: AUC(0-t) (ng·h/mL)
Give the value, in units of ng·h/mL, as a plain number.

Req: // lookup AUC(0-t) for O=C(/C=C\n1cnc(-c2cc(C(F)(F)F)cc(C(F)(F)F)c2)n1)NNc1ccccn1
Resp: 3000

###

- Assay info: Pharmacokinetics study of KPT-335 in cats (i.v. injection, p.o. capsules and tablets; UPLC-MS/MS, non-compartmental analysis)
- Assay type: in vivo
- Run parameters: both sexes, plasma, po, 0.2 mg/kg, cats, p.o., Capsule, Fasting, 0.2 mg/kg BW; read-out: Lambda_z (converted)
Observation type: k el (s⁻¹)
Numeric only. Scale: s⁻¹

Req: Fill blank: measured k el of the molecule O=C(/C=C\n1cnc(-c2cc(C(F)(F)F)cc(C(F)(F)F)c2)n1)NNc1ccccn1 is ____.
Resp: 3.33e-05

###

- Assay info: Pharmacokinetics study of KPT-335 in cats (i.v. injection, p.o. capsules and tablets; UPLC-MS/MS, non-compartmental analysis)
- Assay type: in vivo
- Run parameters: both sexes, cat, plasma, po, 1 mg/kg, cats, tablet p.o. 1 mg/kg BW after fasting, 32 h, mean
Observation type: concentration at 32 h (ng/mL)
Express the result in ng/mL but write the number alone.

Req: What value of concentration at 32 h has been recorded for this entry: O=C(/C=C\n1cnc(-c2cc(C(F)(F)F)cc(C(F)(F)F)c2)n1)NNc1ccccn1
Resp: 5.11

###

- Assay info: Pharmacokinetics study of KPT-335 in cats (i.v. injection, p.o. capsules and tablets; UPLC-MS/MS, non-compartmental analysis)
- Assay type: in vivo
- Run parameters: both sexes, plasma, po, 0.2 mg/kg, cats, p.o., Capsule, Fasting, 0.2 mg/kg BW; read-out: Tmax
- Procedure: In this study, a parallel trial design was employed, 42 adult domestic cats (21 males and 21 females), aged 1 to 2 years and weighing 2.5 ± 0.25 kg. Cats were grouped by random number, with half male and female in each group, and all cats were determined to be systemically healthy during an initial screening visit 1 week prior to the experiment. They were acclimatized to the laboratory environment for 7 days before the study commenced. […]
Observation type: Tmax (h)
Only the number, expressed in h, is required.

Req: Look up Tmax for this molecule: O=C(/C=C\n1cnc(-c2cc(C(F)(F)F)cc(C(F)(F)F)c2)n1)NNc1ccccn1 [KPT-335]
Resp: 2.46

###

- Assay info: Pharmacokinetics study of KPT-335 in cats (i.v. injection, p.o. capsules and tablets; UPLC-MS/MS, non-compartmental analysis)
- Type: in vivo
- Run parameters: both sexes, cat, plasma, po, 1 mg/kg, cats, capsule p.o. 1 mg/kg BW, 0.5 h, mean
Observation type: concentration at 0.5 h
Don't forget the unit after the value.

Req: Item under review: O=C(/C=C\n1cnc(-c2cc(C(F)(F)F)cc(C(F)(F)F)c2)n1)NNc1ccccn1 . Reported concentration at 0.5 h?
Resp: 100 ng/mL

###

- Assay info: Pharmacokinetics study of KPT-335 in cats (i.v. injection, p.o. capsules and tablets; UPLC-MS/MS, non-compartmental analysis)
- Assay type: in vivo
- Run parameters: both sexes, cat, plasma, iv, 1 mg/kg, cats, i.v. 1 mg/kg BW, 24 h, mean
Observation type: concentration at 24 h (ng/mL)
# value in ng/mL; strip the unit string

Req: concentration at 24 h lookup needed for O=C(/C=C\n1cnc(-c2cc(C(F)(F)F)cc(C(F)(F)F)c2)n1)NNc1ccccn1 , thanks.
Resp: 10.2

###

- Assay info: Pharmacokinetics study of KPT-335 in cats (i.v. injection, p.o. capsules and tablets; UPLC-MS/MS, non-compartmental analysis)
- Type: in vivo
- Run parameters: female, plasma, po, 0.2 mg/kg, female cats, p.o., Capsule, Fasting, 0.2 mg/kg BW; read-out: AUClast Value females
Observation type: AUC(0-t) (ng·h/mL)
Entry rule: numbers only, all in ng·h/mL.

Req: Fill in: AUC(0-t) of O=C(/C=C\n1cnc(-c2cc(C(F)(F)F)cc(C(F)(F)F)c2)n1)NNc1ccccn1 is ___
Resp: 244

###

- Assay info: Pharmacokinetics study of KPT-335 in cats (i.v. injection, p.o. capsules and tablets; UPLC-MS/MS, non-compartmental analysis)
- Type: in vivo
- Run parameters: both sexes, plasma, po, 1 mg/kg, cats, p.o., Tablet, Feeding, 1 mg/kg BW; read-out: Cmax
Observation type: Cmax (ng/mL)
State the answer as a number, implicitly in ng/mL.

Req: Returns the measured Cmax for the input compound. Input: O=C(/C=C\n1cnc(-c2cc(C(F)(F)F)cc(C(F)(F)F)c2)n1)NNc1ccccn1 [KPT-335]
Resp: 364

###

- Assay info: Pharmacokinetics study of KPT-335 in cats (i.v. injection, p.o. capsules and tablets; UPLC-MS/MS, non-compartmental analysis)
- Type: in vivo
- Run parameters: both sexes, cat, plasma, other: i.v. and p.o.; cats, i.v. and p.o. routes, all groups; read-out: half-life (T1/2), range over all groups
Observation type: half-life

Req: Which value of half-life has been reported for O=C(/C=C\n1cnc(-c2cc(C(F)(F)F)cc(C(F)(F)F)c2)n1)NNc1ccccn1 in the records?
Resp: 3.5 to 7 h
